Taken from paper PMC10258243.

- System: N. fowleri ATCC® 30215™
- Experimental protocol: alamarBlue colorimetric activity assay, trophozoites
- Type: cell-based, Naegleria fowleri
- Measurement context: selectivity index
Measured N. fowleri ATCC® 30215™ SI (CC50/IC50) values are reported for all entries that follow.

# Compound, N. fowleri ATCC® 30215™ SI (CC50/IC50)
measured = [
    ("CC(CCC(=O)C1(C)CCC(C(C)(C)O)O1)C1CCC2OC(C3(C)CCC(Br)C(C)(C)O3)CCC2(C)O1 (stereo not shown)", ">5.23"),
    ("C=C(CCC(=O)C1(C)CCC(C(C)(C)O)O1)C1CCC2OC(C3(C)CCC(Br)C(C)(C)O3)CCC2(C)O1 (stereo not shown) [18-KetoDT (6), 18-ketodehydrothyrsiferol]", 3.17),
    ("CCCCCCCCCCCCCCCCOP(=O)([O-])OCC[N+](C)(C)C [Miltefosine, reference compound]", 1.57),
    ("C[C@@H]1[C@H](O)[C@@H](C)/C=C/C=C/C=C/C=C/C=C/C=C/C=C/[C@H](O[C@@H]2O[C@H](C)[C@@H](O)[C@H](N)[C@@H]2O)C[C@@H]2O[C@](O)(C[C@@H](O)C[C@@H](O)[C@H](O)CC[C@@H](O)C[C@@H](O)CC(=O)O[C@H]1C)C[C@H](O)[C@H]2C(=O)O [Amphotericin B, reference compound]", ">1204.82"),
]
